# System: Panicum Spp
# experiment notes: post-emergence herbicidal activity, greenhouse
# Assay type: in vivo
# condition summary: Table II, 4 WAT, 5.6 kg/h
# From the text: A good grade of top soil is placed in aluminum pans having holes in the bottom and compacted to a depth of 0.95 to 1.27 cm. from the top of the pan. […] The pans are returned to the greenhouse and watered as before and the injury to the plants as compared to the control is observed at approximately two and four weeks as indicated in the tables under WAT and the results recorded. […]

{"columns": ["molecule", "post-emergence herbicidal activity index"],
 "data": [
  ["N#CCN(CP(=O)(Oc1ccccc1)Oc1ccccc1)SSc1cccc(C(F)(F)F)c1 [IV]", "2 (50-74% control)"],
  ["CC(C)CCSSN(CC#N)CP(=O)(Oc1ccccc1)Oc1ccccc1 [V]", "1 (25-49% control)"],
  ["CC(C)SSN(CC#N)CP(=O)(Oc1ccccc1)Oc1ccccc1 [VI]", "1 (25-49% control)"],
  ["N#CCN(CP(=O)(Oc1ccccc1)Oc1ccccc1)SSCCc1ccccc1 [XII]", "1 (25-49% control)"],
  ["CSSN(CC#N)CP(=O)(Oc1ccccc1)Oc1ccccc1 [VII]", "2 (50-74% control)"],
  ["N#CCN(CP(=O)(Oc1ccccc1)Oc1ccccc1)SCl [I]", "1 (25-49% control)"]
]}
